MEASUREMENT_TARGET: UniProt:P20309
Reported pKi values for the following compounds.
Hey, just a heads up that pKi is the negative log base 10 of the concentration in molar.

The cases that follow already have their pKi on record.
{"RECORD_SMILES": "O=C(NCC1CCNCC1)[C@H]1CCCN1C(=O)[C@@H]1CCCN1C(=O)CC(c1ccccc1)(c1ccccc1)c1ccccc1", "pKi": 7.31}
{"RECORD_SMILES": "O=C(NCC1CCNCC1)[C@H]1CCCN1C(=O)[C@@H]1C[C@@H](O)CN1C(=O)CC(c1ccccc1)(c1ccccc1)c1ccccc1", "pKi": 8.38}
{"RECORD_SMILES": "N[C@H]1CCCC[C@@H]1NC(=O)[C@H]1CCCN1C(=O)[C@@H]1CCCN1C(=O)CC(c1ccccc1)(c1ccccc1)c1ccccc1", "pKi": 7.32}

Shifting focus to the compound that follows.
Problem: What does the data say about its pKi? Entry: O=C(NC[C@@H]1CCCNC1)[C@H]1CCCN1C(=O)[C@@H]1C[C@@H](O)CN1C(=O)CC(c1ccc(F)cc1)(c1ccc(F)cc1)c1ccc(F)cc1
Solution: 9.41

* * *

MEASUREMENT_TARGET: Muscarinic acetylcholine receptor M3 (Homo sapiens)
TEST_DETAILS: Inhibition of [3H]NMS binding to human cloned M3 receptor expressed in CHO cells at 1 uM
Assay type: cell-based
Sequence (P20309 whole entry, looked up): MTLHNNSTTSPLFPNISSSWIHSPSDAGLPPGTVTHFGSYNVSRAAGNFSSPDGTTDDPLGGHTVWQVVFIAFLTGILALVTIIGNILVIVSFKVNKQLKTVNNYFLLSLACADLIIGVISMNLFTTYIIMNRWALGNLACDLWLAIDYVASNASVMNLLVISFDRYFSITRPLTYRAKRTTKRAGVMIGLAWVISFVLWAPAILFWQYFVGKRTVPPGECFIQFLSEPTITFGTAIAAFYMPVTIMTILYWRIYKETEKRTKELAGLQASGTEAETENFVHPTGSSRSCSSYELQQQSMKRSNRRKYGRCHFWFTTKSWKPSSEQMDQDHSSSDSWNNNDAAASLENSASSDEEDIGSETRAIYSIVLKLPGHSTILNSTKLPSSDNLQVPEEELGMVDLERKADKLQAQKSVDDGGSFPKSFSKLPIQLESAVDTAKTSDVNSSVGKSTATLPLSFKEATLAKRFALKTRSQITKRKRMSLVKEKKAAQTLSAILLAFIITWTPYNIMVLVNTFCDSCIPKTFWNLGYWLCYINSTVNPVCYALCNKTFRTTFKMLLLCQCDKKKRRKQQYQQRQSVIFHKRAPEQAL
Reported inhibition values for the following molecules.
Expressed in %, but write only the number.

Problem: What does the data say about its inhibition? Entry: Nc1ccc(NC(=O)[C@H]2CCCN2C(=O)[C@@H]2CCCN2C(=O)CC(c2ccccc2)(c2ccccc2)c2ccccc2)cc1
Solution: 8

Problem: What does the data say about its inhibition? Entry: O=C(NCCC1CCNCC1)[C@H]1CCCN1C(=O)[C@@H]1CCCN1C(=O)CC(c1ccccc1)(c1ccccc1)c1ccccc1
Solution: 88

Problem: What does the data say about its inhibition? Entry: NCCNC(=O)[C@H]1CCCN1C(=O)[C@@H]1CCCN1C(=O)CC(c1ccccc1)(c1ccccc1)c1ccccc1
Solution: -4

Problem: What does the data say about its inhibition? Entry: NC1CCCC(NC(=O)[C@H]2CCCN2C(=O)[C@@H]2CCCN2C(=O)CC(c2ccccc2)(c2ccccc2)c2ccccc2)C1 (stereo not given in full)
Solution: 59

Problem: What does the data say about its inhibition? Entry: Nc1ccccc1CNC(=O)[C@H]1CCCN1C(=O)[C@@H]1CCCN1C(=O)CC(c1ccccc1)(c1ccccc1)c1ccccc1 (stereo in doubt; 45)
Solution: 5

* * *

MEASUREMENT_TARGET: Muscarinic acetylcholine receptor M3 (Homo sapiens, UniProt P20309)
TEST_DETAILS: Inhibition of [3H]NMS binding to human cloned M3 receptor expressed in CHO cells at 1 uM
Format: cell-based
OBSERVATION_TYPE: inhibition (%)
Expressed in %, but write only the number.

The cases that follow already have their inhibition on record.
{"COMPOUND": "NCC1CCCCN1C(=O)[C@H]1CCCN1C(=O)[C@@H]1CCCN1C(=O)CC(c1ccccc1)(c1ccccc1)c1ccccc1 (some centres undefined)", "OBSERVATION_TYPE": "inhibition", "MEASURED_VALUE": 5}
{"COMPOUND": "NC1CCCN(C(=O)[C@H]2CCCN2C(=O)[C@@H]2CCCN2C(=O)CC(c2ccccc2)(c2ccccc2)c2ccccc2)C1 (some centres undefined)", "OBSERVATION_TYPE": "inhibition", "MEASURED_VALUE": 22}
{"COMPOUND": "NCC1CCN(C(=O)[C@H]2CCCN2C(=O)[C@@H]2CCCN2C(=O)CC(c2ccccc2)(c2ccccc2)c2ccccc2)C1 (some centres undefined)", "OBSERVATION_TYPE": "inhibition", "MEASURED_VALUE": 7}

Problem: What does the data say about its inhibition? Entry: NCc1cccc(NC(=O)[C@H]2CCCN2C(=O)[C@@H]2CCCN2C(=O)CC(c2ccccc2)(c2ccccc2)c2ccccc2)c1
Solution: 12

Problem: What does the data say about its inhibition? Entry: O=C(NCC1CCCCN1)[C@H]1CCCN1C(=O)[C@@H]1CCCN1C(=O)CC(c1ccccc1)(c1ccccc1)c1ccccc1 (some centres undefined)
Solution: 28

Problem: What does the data say about its inhibition? Entry: NC1CCN(C(=O)[C@H]2CCCN2C(=O)[C@@H]2CCCN2C(=O)CC(c2ccccc2)(c2ccccc2)c2ccccc2)C1 (some centres undefined)
Solution: 0

Problem: What does the data say about its inhibition? Entry: Nc1ccccc1CNC(=O)[C@H]1CCCN1C(=O)[C@@H]1CCCN1C(=O)CC(c1ccccc1)(c1ccccc1)c1ccccc1 (stereo in doubt; 46)
Solution: 10

Problem: What does the data say about its inhibition? Entry: N[C@@H]1CCCC[C@@H]1NC(=O)[C@H]1CCCN1C(=O)[C@@H]1CCCN1C(=O)CC(c1ccccc1)(c1ccccc1)c1ccccc1
Solution: 40

Problem: What does the data say about its inhibition? Entry: Nc1cccc(CNC(=O)[C@H]2CCCN2C(=O)[C@@H]2CCCN2C(=O)CC(c2ccccc2)(c2ccccc2)c2ccccc2)c1
Solution: 6

Problem: What does the data say about its inhibition? Entry: NCc1ccc(NC(=O)[C@H]2CCCN2C(=O)[C@@H]2CCCN2C(=O)CC(c2ccccc2)(c2ccccc2)c2ccccc2)cc1
Solution: 9

Problem: What does the data say about its inhibition? Entry: O=C(NC[C@@H]1CCCNC1)[C@H]1CCCN1C(=O)[C@@H]1CCCN1C(=O)CC(c1ccccc1)(c1ccccc1)c1ccccc1
Solution: 91

Problem: What does the data say about its inhibition? Entry: O=C([C@H]1CCCN1C(=O)[C@@H]1CCCN1C(=O)CC(c1ccccc1)(c1ccccc1)c1ccccc1)N1CCNCC1
Solution: 12

Problem: What does the data say about its inhibition? Entry: Nc1ccccc1NC(=O)[C@H]1CCCN1C(=O)[C@@H]1CCCN1C(=O)CC(c1ccccc1)(c1ccccc1)c1ccccc1
Solution: 11

Problem: What does the data say about its inhibition? Entry: O=C(NCC1CCNCC1)[C@H]1CCCN1C(=O)[C@@H]1CCCN1C(=O)CC(c1ccccc1)(c1ccccc1)c1ccccc1
Solution: 82

Problem: What does the data say about its inhibition? Entry: N[C@H]1CCCC[C@@H]1NC(=O)[C@H]1CCCN1C(=O)[C@@H]1CCCN1C(=O)CC(c1ccccc1)(c1ccccc1)c1ccccc1
Solution: 80

Problem: What does the data say about its inhibition? Entry: NCCCNC(=O)[C@H]1CCCN1C(=O)[C@@H]1CCCN1C(=O)CC(c1ccccc1)(c1ccccc1)c1ccccc1
Solution: 2

Problem: What does the data say about its inhibition? Entry: O=C(NC[C@H]1CCCNC1)[C@H]1CCCN1C(=O)[C@@H]1CCCN1C(=O)CC(c1ccccc1)(c1ccccc1)c1ccccc1
Solution: 74

Problem: What does the data say about its inhibition? Entry: O=C(NCC1CCNC1)[C@H]1CCCN1C(=O)[C@@H]1CCCN1C(=O)CC(c1ccccc1)(c1ccccc1)c1ccccc1 (some centres undefined)
Solution: 33

Problem: What does the data say about its inhibition? Entry: NC1CCC(NC(=O)[C@H]2CCCN2C(=O)[C@@H]2CCCN2C(=O)CC(c2ccccc2)(c2ccccc2)c2ccccc2)CC1 (some centres undefined)
Solution: -7

Problem: What does the data say about its inhibition? Entry: O=C(NC1CCNC1)[C@H]1CCCN1C(=O)[C@@H]1CCCN1C(=O)CC(c1ccccc1)(c1ccccc1)c1ccccc1 (some centres undefined)
Solution: -4

Problem: What does the data say about its inhibition? Entry: NCC1CCCN(C(=O)[C@H]2CCCN2C(=O)[C@@H]2CCCN2C(=O)CC(c2ccccc2)(c2ccccc2)c2ccccc2)C1 (some centres undefined)
Solution: 32

* * *

Target sequence: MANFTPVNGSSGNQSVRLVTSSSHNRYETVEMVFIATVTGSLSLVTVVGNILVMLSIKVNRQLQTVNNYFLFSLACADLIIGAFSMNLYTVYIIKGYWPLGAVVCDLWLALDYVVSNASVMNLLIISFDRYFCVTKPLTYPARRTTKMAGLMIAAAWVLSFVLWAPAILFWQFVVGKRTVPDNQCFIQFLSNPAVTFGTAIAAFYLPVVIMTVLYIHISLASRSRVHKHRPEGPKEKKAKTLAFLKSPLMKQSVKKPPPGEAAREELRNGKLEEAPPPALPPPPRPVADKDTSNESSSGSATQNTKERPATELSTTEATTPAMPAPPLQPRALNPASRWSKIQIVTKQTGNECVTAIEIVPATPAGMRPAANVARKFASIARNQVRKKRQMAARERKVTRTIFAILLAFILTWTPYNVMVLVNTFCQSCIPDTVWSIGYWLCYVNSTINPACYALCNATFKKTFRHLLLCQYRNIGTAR
pKi: −log10 of the molar value.
Mark not fulfilled for pKi values under 7, and fulfilled for everything at or above.

Problem: Say whether O=C(NCC1CCN(CC2CC2)CC1)[C@H]1CCCN1C(=O)[C@@H]1C[C@@H](O)CN1C(=O)CC(c1ccc(F)cc1)(c1ccc(F)cc1)c1ccc(F)cc1 shows pKi of 7 or more.
Solution: fulfilled

* * *

Entries below carry reported pKi on Muscarinic acetylcholine receptor M3 (Homo sapiens, UniProt P20309).
Hey, just a heads up that pKi is the negative log base 10 of the concentration in molar.

Problem: What does the data say about its pKi? Entry: O=C(NCC1CCN(CC2CC2)CC1)[C@H]1CCCN1C(=O)[C@@H]1C[C@@H](O)CN1C(=O)CC(c1ccc(F)cc1)(c1ccc(F)cc1)c1ccc(F)cc1
Solution: 9.77

Problem: What does the data say about its pKi? Entry: CN1CCC(CNC(=O)[C@H]2CCCN2C(=O)[C@@H]2C[C@@H](O)CN2C(=O)CC(c2ccc(F)cc2)(c2ccc(F)cc2)c2ccc(F)cc2)CC1
Solution: 9.29

Problem: What does the data say about its pKi? Entry: CCN1CCC(CNC(=O)[C@H]2CCCN2C(=O)[C@@H]2C[C@@H](O)CN2C(=O)CC(c2ccc(F)cc2)(c2ccc(F)cc2)c2ccc(F)cc2)CC1
Solution: 9.04

Problem: What does the data say about its pKi? Entry: O=C(NCCC1CCNCC1)[C@H]1CCCN1C(=O)[C@@H]1C[C@@H](O)CN1C(=O)CC(c1ccc(F)cc1)(c1ccc(F)cc1)c1ccc(F)cc1
Solution: 9.32
